# credit: patent US6057359A

Percent reduction of plaques in VERO cell monolayers values, listed per item
Test system: Herpes-Virus (Herpes Simplex, HSV)
Experiment: Antiviral/virucidal efficacy against HSV, plaque reduction in VERO cells
Format: cell-based
Settings: dilution 1:100'000; compared to simple medium; 2880 min
READOUT KIND: Percent reduction of plaques in VERO cell monolayers (%)

{"columns": ["COMPOUND", "EXPERIMENTAL RESULT"],
 "data": [
  ["CCCCCCCCCCCC(=O)O[C@H]1CC[C@@]2(C)C(=CC=C3[C@@H]4CC[C@H]([C@H](C)/C=C/[C@H](C)C(C)C)[C@@]4(C)CC[C@@H]32)C1 [C12:0 -ERGO ESTER (ERGOST. LAURATE)]", 0],
  ["CCCCCCCCCCCCCCCC(=O)O[C@H]1CC[C@@]2(C)C(=CC[C@H]3[C@@H]4CC[C@H]([C@H](C)CC[C@@H](CC)C(C)C)[C@@]4(C)CC[C@@H]32)C1 [β-SITOSTERYL-PALMITATE, 3β-Stigmast-5-en-3-palmitate]", 0],
  ["C=CCCCCCCCCC(=O)Oc1cc(OC(=O)CCCCCCCCC=C)c2c(=O)c(OC(=O)CCCCCCCCC=C)c(-c3ccc(OC(=O)CCCCCCCCC=C)c(OC(=O)CCCCCCCCC=C)c3)oc2c1 [QUERCETIN-PENTA-UNDECENOATE, Quercetin-penta-10-undecenoate]", 0],
  ["CCCCCCCCCCCCCCCCCCCC(=O)O[C@H]1CC[C@@]2(C)C(=CC[C@H]3[C@@H]4CC[C@H]([C@H](C)CC[C@@H](CC)C(C)C)[C@@]4(C)CC[C@@H]32)C1 [β-Sitosteryl-Arachidate, 3β-Stigmast-5-en-3-arachidate]", 5]
]}

* * *

Tested on: LEUKEMIA K 562
Assay: Vitality/proliferation test (Tritium), leukemia K 562
Type: cell-based, human
Settings: 10^-4; controls 50'037 cpm
From the text: 4.0 Comparative assays with human tumor cell lines VITALITY TEST/1%-MARIGENOL-CONCENTRATE 1 × 10^4 cells per well Proliferation test (Tritium: 1 μCi/well H^+)

{"columns": ["MOLECULE", "UNITS", "Proliferation test %"],
 "data": [
  ["CC(=O)O[C@H]1C(=O)[C@@]2(C)[C@H]([C@H](OC(=O)c3ccccc3)[C@]3(O)C[C@H](OC(=O)[C@H](O)[C@@H](NC(=O)c4ccccc4)c4ccccc4)C(C)=C1C3(C)C)[C@]1(OC(C)=O)CO[C@@H]1C[C@@H]2O [TAXOL-A.S., Taxol (Paclitaxel), reference compound]", "%", 1.6],
  ["C=CCCCCCCCCC(=O)O[C@H]1C[C@@]2(O)[C@@H](OC(=O)c3ccccc3)[C@@H]3[C@]4(OC(C)=O)CO[C@@H]4C[C@H](OC(=O)CCCCCCCCC=C)[C@@]3(C)C(=O)[C@H](OC(C)=O)C(=C1C)C2(C)C [BACCATIN III-DI-UNDECENOATE, 7,13-Baccatin-III-diundecenoate]", "%", 1.3],
  ["CC(=O)O[C@H]1C(=O)[C@@]2(C)[C@H]([C@H](OC(=O)c3ccccc3)[C@]3(O)C[C@H](O)C(C)=C1C3(C)C)[C@]1(OC(C)=O)CO[C@@H]1C[C@@H]2O", "%", 1.5],
  ["CCCCCCCCCCCC(=O)O[C@H]1C[C@@]2(O)[C@@H](OC(=O)c3ccccc3)[C@@H]3[C@]4(OC(C)=O)CO[C@@H]4C[C@H](OC(=O)CCCCCCCCCCC)[C@@]3(C)C(=O)[C@H](OC(C)=O)C(=C1C)C2(C)C [BACCATIN III-DI-LAURATE, 7,13-Dilauroylbaccatin-III]", "%", 1.3]
]}
